Experiment: Hepatocyte stability assay, mouse
Type: in vitro ADME
Conditions: mouse, hepatocytes, Hepatocyte stability T½
value.type: log10 half-life at 10 μM (log10 of the value in min)

- chemical.structure: "C=C(Cc1nc(C2(c3ccc(Br)cc3)CC2)no1)C(=O)O"
  log10 half-life at 10 μM: 0.95
- chemical.structure: "C=C(Cc1nc(-c2ccc(C(F)(F)CCC)cc2)no1)C(=O)O"
  log10 half-life at 10 μM: 0.78
- chemical.structure: "C=C(Cc1nc(Cc2ccc(OCCCC)cc2)no1)C(=O)O"
  log10 half-life at 10 μM: 0.70
- chemical.structure: "C=C(Cc1nc(C2(c3ccc(OC)cc3)CC2)no1)C(=O)O"
  log10 half-life at 10 μM: 1.69
- chemical.structure: "C=C(Cc1nc(Cc2ccc(C(C)(C)C)cc2)no1)C(=O)O"
  log10 half-life at 10 μM: 1.54
- chemical.structure: "C=C(Cc1nc(-c2cccc(CCCC)c2)no1)C(=O)O"
  log10 half-life at 10 μM: 0.70
- chemical.structure: "C=C(Cc1nc(C2CCCCCCC2)no1)C(=O)O"
  log10 half-life at 10 μM: 1.78
- chemical.structure: "C=C(Cc1nc(C(F)(F)c2ccc(Br)cc2)no1)C(=O)O"
  log10 half-life at 10 μM: 1.75
